test system: field corn (Zea mays L., var. Dekalb 535, CORN); test: Post-emerge test, crop safety; format: in vivo; settings: post-emerge, 250 g ai/ha, 14 days after application, rating scale 0-100
reported.metric: phytotoxicity rating CORN
Enter the number alone.

INSERT INTO assay_data (molecular_string, reported_metric, number) VALUES
  ('COc1c(Cl)cc(F)c(-n2c(=O)cc(C(F)(F)F)n(C)c2=O)c1NC(=O)COc1ccccc1', 'phytotoxicity rating CORN', 90),
  ('Cn1c(C(F)(F)F)cc(=O)n(-c2c(F)cc(Cl)c(OCC#N)c2N(C(=O)c2ccc(F)cc2F)C(=O)c2ccc(F)cc2F)c1=O', 'phytotoxicity rating CORN', 5),
  ('COc1c(Cl)cc(F)c(-n2c(=O)cc(C(F)(F)F)n(C)c2=O)c1NC(=O)c1ccc(Cl)c(Cl)c1', 'phytotoxicity rating CORN', 80);

Now for a further compound.
phytotoxicity rating CORN recorded for this compound, "Cc1c(Cl)cc(F)c(-n2c(=O)cc(C(F)(F)F)n(C)c2=O)c1NC(=O)C=Cc1ccccc1" , is 40

====

tested on: upland rice (Oryza sp., var. Tebonnet, RICE); test: Post-emerge test, crop safety; format: in vivo; settings: 250 g ai/ha; post-emerge; 14 days after application; rating scale 0-100
reported.metric: Post-emerge Herbicidal Activity RICE (crop damage rating)
Enter the number alone.

Solved entries:
INSERT INTO assay_data (compound, measured_target, number) VALUES
  ('CCOC(=O)C(Cl)Cc1c(OC)c(Cl)cc(F)c1-c1nn(C)c(C(F)(F)F)c1Cl (centres unmarked)', 'upland rice (Oryza sp., var. Tebonnet, RICE)', 25),
  ('CCOC(=O)CC(C)=NNc1c(OC)c(Cl)cc(F)c1-n1c(=O)cc(C(F)(F)F)n(C)c1=O', 'upland rice (Oryza sp., var. Tebonnet, RICE)', 80),
  ('COc1cc(Cl)cc(Cl)c1-n1c(=O)cc(C(F)(F)F)n(C)c1=O', 'upland rice (Oryza sp., var. Tebonnet, RICE)', 20),
  ('COc1c(Cl)cc(F)c(-n2c(=O)cc(C(F)(F)F)n(C)c2=O)c1Sc1ccc2ccccc2c1', 'upland rice (Oryza sp., var. Tebonnet, RICE)', 0),
  ('COc1c(Cl)cc(F)c(-n2c(=O)cc(C(F)(F)F)n(C)c2=O)c1SCCO', 'upland rice (Oryza sp., var. Tebonnet, RICE)', 0),
  ('CCCOC(=O)C(Cl)Cc1c(OCC)c(Cl)cc(F)c1-n1c(=O)cc(C(F)(F)F)n(C)c1=O (centres unmarked) [14-65]', 'upland rice (Oryza sp., var. Tebonnet, RICE)', 10),
  ('COc1c(Cl)cc(F)c(-n2c(=O)cc(C(F)(F)F)n(C)c2=O)c1NN=C(C)C', 'upland rice (Oryza sp., var. Tebonnet, RICE)', 99),
  ('C=CC=NNc1c(OC)c(Cl)cc(F)c1-n1c(=O)cc(C(F)(F)F)n(C)c1=O', 'upland rice (Oryza sp., var. Tebonnet, RICE)', 80);

Post-emerge Herbicidal Activity RICE (crop damage rating) recorded for this compound, "COc1c(Cl)cc(F)c(-n2c(=O)cc(C(F)(F)F)n(C)c2=O)c1NN=Cc1ccc2ccccc2c1" , is 90

Post-emerge Herbicidal Activity RICE (crop damage rating) recorded for this compound, CCOC(=O)C(Cl)Cc1cc(Cl)cc(F)c1-n1c(=O)cc(C(F)(F)F)n(C)c1=O (centres unmarked) , is 20

Post-emerge Herbicidal Activity RICE (crop damage rating) recorded for this compound, "CCOc1c(Cl)cc(F)c(-n2c(=O)cc(C(F)(F)F)n(C)c2=O)c1Cl" , is 5

Post-emerge Herbicidal Activity RICE (crop damage rating) recorded for this compound, "Cn1c(C(F)(F)F)cc(=O)n(-c2ccc(Cl)cc2/C=C/c2ccc3ccccc3c2)c1=O" , is 0

Post-emerge Herbicidal Activity RICE (crop damage rating) recorded for this compound, "COc1c(Cl)cc(F)c(-n2c(=O)cc(C(F)(F)F)n(C)c2=O)c1NN=CCc1ccccc1" , is 95

====

system: velvetleaf (Abutilon theophrasti, ABUTH); experiment: Pre-emerge test, greenhouse herbicide activity screening; format: in vivo; conditions: 63 g ai/ha; rating scale 0-100, 14 days after application
reported.metric: Pre-emerge herbicidal activity, phytotoxicity rating ABUTH
Enter the number alone.

Solved entries:
INSERT INTO assay_data (compound, measured_target, number) VALUES
  ('CCCOC(=O)C(C)(Cl)Cc1c(OC)c(Cl)cc(F)c1-n1c(=O)cc(C(F)(F)F)n(C)c1=O (stereo not shown)', 'velvetleaf (Abutilon theophrasti, ABUTH)', 100),
  ('CCCCCOC(=O)C(Cl)Cc1c(OC)c(Cl)cc(F)c1-n1c(=O)cc(C(F)(F)F)n(C)c1=O (single isomer, unassigned)', 'velvetleaf (Abutilon theophrasti, ABUTH)', 0),
  ('COc1c(Cl)cc(F)c(N2C(=O)c3ccccc3C2=O)c1NC(=O)c1ccc2ccccc2c1', 'velvetleaf (Abutilon theophrasti, ABUTH)', 0);

Pre-emerge herbicidal activity, phytotoxicity rating ABUTH recorded for this compound, COc1c(Cl)cc(F)c(-n2c(=O)cc(C(F)(F)F)n(C)c2=O)c1CC(Cl)C(=O)OCCC#N (stereo not shown) , is 0

Pre-emerge herbicidal activity, phytotoxicity rating ABUTH recorded for this compound, CCCOC(=O)C(Cl)Cc1c(OC)c(Cl)cc(F)c1-n1c(=O)cc(C(F)(F)F)n(C)c1=O (single isomer, unassigned) [14-6] , is 30

Pre-emerge herbicidal activity, phytotoxicity rating ABUTH recorded for this compound, CCCCCOC(=O)C(C)(Cl)Cc1c(OC)c(Cl)cc(F)c1-n1c(=O)cc(C(F)(F)F)n(C)c1=O (stereo not shown) , is 90

Pre-emerge herbicidal activity, phytotoxicity rating ABUTH recorded for this compound, COc1c(Cl)cc(F)c(-n2c(=O)cc(C(F)(F)F)n(C)c2=O)c1CC(C)(Cl)C(=O)OCc1ccccc1 (stereo not shown) , is 90

====

test system: upland rice (Oryza sp., var. Tebonnet, RICE); test: Post-emerge test, crop safety; format: in vivo; details: 250 g ai/ha; phytotoxicity rating 0-100 (0 no damage, 100 complete death), 14 days after application
Some molecules, each annotated with its measured Post-emerge Herbicidal Activity RICE (crop damage).

INSERT INTO results (molecular_string, result) VALUES
  ('CCn1c(C(F)(F)F)cc(=O)n(-c2c(F)cc(Cl)c(OC)c2N)c1=O', 0),
  ('COc1c(Cl)cc(F)c(-n2c(=O)cc(C(F)(F)F)n(C)c2=O)c1N(C)C', 0),
  ('CCc1ccc(C(=O)Nc2c(OCC#N)c(Cl)cc(F)c2-n2c(=O)cc(C(F)(F)F)n(C)c2=O)cc1', 90);

Now for a further molecule.
Post-emerge Herbicidal Activity RICE (crop damage) recorded for this molecule, "COc1c(Cl)cc(F)c(-n2c(=O)cc(C(F)(F)F)n(C)c2=O)c1N=CN(C)C" , is 10

====

tested on: sicklepod (Cassia obtusifolia, CASOB); experiment: Post-emerge test, greenhouse herbicide activity screening; format: in vivo; details: post-emerge, 63 g ai/ha, phytotoxicity rating 0-100 at 14 days after application
Some compounds, each annotated with its measured Post-emerge Herbicidal Activity CASOB.
Enter the number alone.

Solved entries:
INSERT INTO results (compound, number) VALUES
  ('Cc1nn(-c2c(F)cc(Cl)cc2NC(=O)c2ccc(F)cc2F)c(=O)n1C(F)F', 0),
  ('COc1c(Cl)cc(F)c(-n2c(=O)n3n(c2=O)CCCC3)c1NC(=O)c1ccc2ccccc2c1', 100),
  ('COc1c(Cl)cc(F)c(N2C(=O)C3=C(CCCC3)C2=O)c1NC(=O)C=Cc1ccccc1', 60);

Post-emerge Herbicidal Activity CASOB recorded for this compound, "COc1c(Cl)cc(F)c(-n2c(=O)n3n(c2=O)CCCC3)c1NC(=O)c1ccc(F)cc1F" , is 50

Post-emerge Herbicidal Activity CASOB recorded for this compound, "Cc1cc(C)c(COC(=O)Nc2c(C)c(Cl)cc(F)c2-n2c(=O)cc(C(F)(F)F)n(C)c2=O)c(C)c1" , is 40

====

test system: large crabgrass (Digitaria sanguinalis, DIGSA); test: Pre-emerge test, greenhouse herbicide activity screening; type: in vivo; conditions: 63 g ai/ha; rated 14 days after application; 0 = no damage, 100 = complete death
reported.metric: Pre-emerge Herbicidal Activity, phytotoxicity rating (0-100), DIGSA

Solved entries:
INSERT INTO assay_data (compound, result) VALUES
  ('COc1c(Cl)cc(F)c(-n2c(=S)cc(C(F)(F)F)n(C)c2=O)c1NC(=S)c1ccc(F)cc1F [2-46]', 30),
  ('Cc1c(Cl)cc(F)c(-n2c(=O)cc(C(F)(F)F)n(C)c2=O)c1NC(=O)c1ccc2ccccc2c1 [Compound 2-122]', 100);

Pre-emerge Herbicidal Activity, phytotoxicity rating (0-100), DIGSA recorded for this compound, COc1c(Cl)cc(F)c(-n2c(=O)cc(C(F)(F)F)n(C)c2=O)c1NC(=O)C(C)=Cc1ccccc1 [2-81] , is 100

Pre-emerge Herbicidal Activity, phytotoxicity rating (0-100), DIGSA recorded for this compound, COc1c(Cl)cc(F)c(-n2c(=O)cc(C(F)(F)F)n(C)c2=O)c1N(C(=O)C=Cc1ccccc1Cl)C(=O)C=Cc1ccccc1Cl [2-83] , is 0

Pre-emerge Herbicidal Activity, phytotoxicity rating (0-100), DIGSA recorded for this compound, COc1c(Cl)cc(F)c(-n2c(=O)cc(C(F)(F)F)n(C)c2=O)c1NC(=O)c1ccc(OC(F)(F)F)cc1 [2-72] , is 30

Pre-emerge Herbicidal Activity, phytotoxicity rating (0-100), DIGSA recorded for this compound, COc1c(Cl)cc(F)c(-n2c(=O)cc(C(F)(F)F)n(C)c2=O)c1NC(=O)c1ccc(C)c(C)c1 [2-32] , is 100

Pre-emerge Herbicidal Activity, phytotoxicity rating (0-100), DIGSA recorded for this compound, COc1c(Cl)cc(F)c(-n2c(=O)cc(C(F)(F)F)n(C)c2=O)c1NC(=O)C=Cc1ccccc1 [2-78] , is 30
